# target_system: Gamma-aminobutyric acid receptor subunit alpha-1 (Homo sapiens, UniProt P14867)
# Sequence (P14867 whole entry): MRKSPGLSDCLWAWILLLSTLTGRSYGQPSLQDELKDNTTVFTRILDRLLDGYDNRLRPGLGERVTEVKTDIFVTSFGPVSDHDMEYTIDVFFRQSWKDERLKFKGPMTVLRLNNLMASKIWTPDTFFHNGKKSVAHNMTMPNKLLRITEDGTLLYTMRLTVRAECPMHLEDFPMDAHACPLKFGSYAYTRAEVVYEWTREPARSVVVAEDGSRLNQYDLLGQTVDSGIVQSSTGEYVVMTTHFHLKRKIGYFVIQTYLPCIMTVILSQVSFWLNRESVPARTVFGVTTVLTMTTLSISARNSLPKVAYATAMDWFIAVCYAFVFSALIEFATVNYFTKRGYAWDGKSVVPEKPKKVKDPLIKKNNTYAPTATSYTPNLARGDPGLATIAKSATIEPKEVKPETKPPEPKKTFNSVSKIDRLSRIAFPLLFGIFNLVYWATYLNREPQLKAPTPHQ

{"compound": "CCCCN1CCC(COC(=O)c2cc(Cl)c(N)c3c2OCCO3)CC1 [CAS_121881]", "Ki": "> 10 µM"}

====

# target_system: D(3) dopamine receptor (Homo sapiens)
# Sequence (P35462 as listed by the source): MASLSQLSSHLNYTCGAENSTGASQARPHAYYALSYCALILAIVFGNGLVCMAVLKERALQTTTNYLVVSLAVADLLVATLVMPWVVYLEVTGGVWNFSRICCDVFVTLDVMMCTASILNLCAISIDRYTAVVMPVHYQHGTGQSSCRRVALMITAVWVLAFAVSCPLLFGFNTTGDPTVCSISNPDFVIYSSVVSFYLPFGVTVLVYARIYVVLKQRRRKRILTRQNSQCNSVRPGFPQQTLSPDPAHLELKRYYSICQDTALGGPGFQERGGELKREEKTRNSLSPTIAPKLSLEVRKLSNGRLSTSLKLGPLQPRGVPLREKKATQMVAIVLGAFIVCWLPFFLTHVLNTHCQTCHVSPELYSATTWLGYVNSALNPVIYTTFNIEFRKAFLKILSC
pKi: −log10 of the molar value.

{"molecule": "CCCCN1CCC(COC(=O)c2cc(Cl)c(N)c3c2OCCO3)CC1 [CAS_121881]", "pKi": 6.00}

====

# target_system: Gamma-aminobutyric acid receptor subunit alpha-1 (Rattus norvegicus, UniProt P62813)
# Sequence (P62813 whole entry): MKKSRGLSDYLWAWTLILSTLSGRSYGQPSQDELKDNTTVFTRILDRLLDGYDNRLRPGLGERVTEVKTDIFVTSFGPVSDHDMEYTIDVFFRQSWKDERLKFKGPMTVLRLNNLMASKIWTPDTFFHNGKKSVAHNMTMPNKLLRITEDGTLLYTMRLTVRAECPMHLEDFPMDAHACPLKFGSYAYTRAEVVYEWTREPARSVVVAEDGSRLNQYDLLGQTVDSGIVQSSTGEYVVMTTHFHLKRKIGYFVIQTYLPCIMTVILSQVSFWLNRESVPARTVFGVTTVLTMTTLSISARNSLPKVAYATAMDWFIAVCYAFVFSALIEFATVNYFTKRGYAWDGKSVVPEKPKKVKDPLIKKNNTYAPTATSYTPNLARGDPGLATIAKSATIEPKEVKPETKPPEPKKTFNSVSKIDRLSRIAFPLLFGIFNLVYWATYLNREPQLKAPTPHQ

{"item_smiles": "CCCCN1CCC(COC(=O)c2cc(Cl)c(N)c3c2OCCO3)CC1", "Ki": "> 10 µM"}
